Give HT2B, percent of control-specific binding for every item shown.
# TARGET UNDER TEST: 5-HT2B (h) (Homo sapiens)
# Construct: host or cells: CHO cells
# Sequence (P41595 whole entry): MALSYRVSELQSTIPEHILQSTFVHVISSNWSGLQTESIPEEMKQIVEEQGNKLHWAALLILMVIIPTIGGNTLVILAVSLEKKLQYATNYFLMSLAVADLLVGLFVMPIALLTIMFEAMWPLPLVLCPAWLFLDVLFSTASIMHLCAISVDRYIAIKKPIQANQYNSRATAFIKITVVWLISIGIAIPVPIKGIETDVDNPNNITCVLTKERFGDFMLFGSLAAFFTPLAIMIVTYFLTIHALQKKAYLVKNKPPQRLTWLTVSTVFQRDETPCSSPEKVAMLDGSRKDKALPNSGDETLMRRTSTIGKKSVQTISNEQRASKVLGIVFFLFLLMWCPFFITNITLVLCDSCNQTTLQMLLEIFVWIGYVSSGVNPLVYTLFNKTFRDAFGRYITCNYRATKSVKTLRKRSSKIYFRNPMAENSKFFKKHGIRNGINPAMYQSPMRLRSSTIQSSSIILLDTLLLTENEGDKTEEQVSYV
# ASSAY PROCEDURE: Competition assay to measure binding affinity at 5-HT2B receptor
# REPORTED CONDITIONS: test ligand 10 μM; [3H]mesulergine 2 nM
One number for each entry, in %.

The following molecules have reported results that may help.
N[C@@H](Cc1c[nH]c2ccccc12)C(=O)O [tryptophan, reference compound] | 0
COc1cc(CC(C)N)c(OC)cc1Br (stereo not drawn) [DOB, reference compound] | 97

Could you now consider this next molecule?
Prompt: # query: HT2B, percent of control-specific binding | item COc1cc2c(cc1CCN1CCCC1)OCO2 [A(XIV)] | system: 5-HT2B (h) (Homo sapiens)
Completion: 63
